Entry source: paper PMC12279193

- targetEntity: MERS-CoV S-trimer protein (Betacoronavirus England 1)
- Sequence (K9N5Q8 18-1294 limits assumed): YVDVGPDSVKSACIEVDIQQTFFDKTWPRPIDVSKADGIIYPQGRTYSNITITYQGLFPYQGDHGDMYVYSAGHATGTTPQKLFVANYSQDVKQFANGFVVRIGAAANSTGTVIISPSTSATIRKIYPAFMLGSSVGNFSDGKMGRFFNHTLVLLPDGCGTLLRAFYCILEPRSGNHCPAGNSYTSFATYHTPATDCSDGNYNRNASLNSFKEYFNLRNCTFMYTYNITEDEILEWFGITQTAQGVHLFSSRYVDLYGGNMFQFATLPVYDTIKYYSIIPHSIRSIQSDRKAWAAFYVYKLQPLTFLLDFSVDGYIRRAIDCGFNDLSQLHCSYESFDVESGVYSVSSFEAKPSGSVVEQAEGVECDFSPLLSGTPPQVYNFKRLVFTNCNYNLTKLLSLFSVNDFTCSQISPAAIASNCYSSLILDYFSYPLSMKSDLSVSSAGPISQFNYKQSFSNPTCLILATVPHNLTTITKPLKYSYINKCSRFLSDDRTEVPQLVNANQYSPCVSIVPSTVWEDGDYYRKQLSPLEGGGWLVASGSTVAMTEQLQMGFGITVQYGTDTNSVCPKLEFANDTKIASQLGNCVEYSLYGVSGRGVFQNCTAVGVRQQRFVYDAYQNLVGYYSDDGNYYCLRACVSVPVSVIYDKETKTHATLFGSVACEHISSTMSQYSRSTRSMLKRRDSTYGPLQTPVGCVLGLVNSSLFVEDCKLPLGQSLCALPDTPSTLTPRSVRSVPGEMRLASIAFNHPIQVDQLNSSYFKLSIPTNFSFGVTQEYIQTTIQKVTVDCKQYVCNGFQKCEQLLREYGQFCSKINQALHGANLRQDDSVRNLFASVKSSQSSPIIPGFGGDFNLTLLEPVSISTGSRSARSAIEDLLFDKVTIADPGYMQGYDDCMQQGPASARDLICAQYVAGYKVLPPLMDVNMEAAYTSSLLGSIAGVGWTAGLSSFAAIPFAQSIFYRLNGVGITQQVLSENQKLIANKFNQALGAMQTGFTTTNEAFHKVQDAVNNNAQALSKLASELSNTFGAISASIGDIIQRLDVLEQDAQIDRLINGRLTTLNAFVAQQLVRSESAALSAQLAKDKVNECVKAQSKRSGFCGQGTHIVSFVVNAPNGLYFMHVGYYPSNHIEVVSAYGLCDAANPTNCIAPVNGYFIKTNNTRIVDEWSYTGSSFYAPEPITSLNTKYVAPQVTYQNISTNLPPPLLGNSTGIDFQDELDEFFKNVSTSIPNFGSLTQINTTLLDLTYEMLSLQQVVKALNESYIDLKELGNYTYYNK
pKd: −log10 of the molar value.
propertyMeasured: pKd

compoundStructure	propertyMeasured	endpointValue
CN(/N=C/c1ccccc1C(=O)O)c1nc(-c2ccccc2Cl)cs1	pKd	4.26

---

- targetEntity: SARS-CoV S-trimer protein (Severe acute respiratory syndrome-related coronavirus)

compoundStructure	Kd
CN(/N=C/c1ccccc1C(=O)O)c1nc(-c2ccccc2Cl)cs1	27.2 µM
